- System: SW480
- experimental details: cell viability (CellTiter-Glo) relative to plate median (fraction of plate median); higher = more viable cells
- conditions used: 5 µM; treatment time 24 h; reporter: 7TFP
outcome measure: cell viability
Number only, please.

molecule	cell viability
O=c1cccc2n1C[C@@H]1CNC[C@H]2C1	1
COc1c2c(cc3c1OCO3)CC[N+](C)=C2	0.991
CC(C)C[C@H](CN)CC(=O)O	1.04
CC(C)(O)[C@@H]1[C@H]2OC(=O)[C@@H]1[C@]1(O)C[C@H]3O[C@]34C(=O)O[C@H]2[C@]14C	1.02

Data request, read-out cell viability, for CC(C)c1cc2c(c(O)c1O)[C@@]1(C(=O)O)CCCC(C)(C)[C@@H]1CC2 1.03

Likewise for Cc1nccc2c1[nH]c1cc(O)ccc12 ? 1.01

Likewise for CCNc1nc(Cl)nc(NC(C)C)n1 ? 0.946

Likewise for CN(C)C(=O)Oc1cccc([N+](C)(C)C)c1 ? 1.01

Likewise for C/C=C(/C)C(=O)O[C@H]1CC[C@@]2(C)[C@@H]3CC[C@H]4[C@]5(O)C[C@H](O)[C@@]6(O)[C@@H](CN7C[C@@H](C)CC[C@H]7[C@@]6(C)O)[C@]5(O)C[C@@]42O[C@]13O ? 0.946

Likewise for CC[C@@]1(O)C(=O)OCc2c1cc1n(c2=O)Cc2cc3ccccc3nc2-1 ? 0.925

Likewise for CC[N+]1(C)CCCC(OC(=O)C(O)(c2ccccc2)c2ccccc2)C1 (stereo unspecified) ? 0.933

---

- System: DLD1
- experimental details: cell viability (CellTiter-Glo) relative to plate median (fraction of plate median); higher = more viable cells
- conditions used: 10 µM; treatment time 24 h; reporter: 7TFP
outcome measure: cell viability
Number only, please.

In [3]: df
Out[3]:
                        structure_as_smiles  readout_number
0  Cn1cc(C2=C(c3cn(C4CCN(Cc5ccccn5)CC4)c4ccccc34)C(=O)NC2=O)c2ccccc21           0.854

Data request, read-out cell viability, for O=c1[nH]c2ccc(Cl)cc2c(N[C@@H]2CN3CCC2CC3)c1-c1nc2ccccc2[nH]1 1

Likewise for CN[C@@H]1C[C@H]2O[C@@](C)([C@@H]1OC)n1c3ccccc3c3c4c(c5c6ccccc6n2c5c31)C(=O)NC4 ? 0.617

Likewise for COC[C@H]1OC(=O)c2coc3c2[C@@]1(C)C1=C(C3=O)[C@@H]2CCC(=O)[C@@]2(C)C[C@H]1OC(C)=O ? 0.844

Likewise for CCN1CCN(C(=O)Cc2ccc(Nc3ncc(F)c(Nc4ccc(C(=O)Nc5ccccc5Cl)cc4)n3)cc2)CC1 ? 0.955

Likewise for Cc1ccccc1-n1c(Cn2cnc3c(N)ncnc32)nc2cccc(C)c2c1=O ? 1.05

Likewise for CC(C)(C)c1cc(C=C(C#N)C#N)cc(Br)c1O ? 0.79

---

- Test system: DLD1
- experimental details: TCF/Wnt firefly luciferase reporter signal relative to plate median (fraction of plate median); higher = higher Wnt reporter signal
- conditions used: 5 µM; treatment time 24 h; reporter: 7TFP
outcome measure: TCF/Wnt firefly luciferase reporter signal

Data request, read-out TCF/Wnt firefly luciferase reporter signal, for O=[N+]([O-])c1cc([As](=O)(O)O)ccc1O 1.01

Likewise for CC[C@H]1CN2CC[C@H]1C[C@@H]2[C@@H](O)c1ccnc2ccc(OC)cc12 ? 1.08

Likewise for Cc1ccc(C[N+](C)(C)C)o1 ? 0.864

Likewise for Oc1cc(Cl)ccc1Oc1ccc(Cl)cc1Cl ? 0.983

Likewise for NCCc1ccc(O)cc1 ? 0.993

Likewise for CC(=O)OC1CCC23C(=O)OC45CCC(C6=CC(=O)OC6)C4(C)CCC2C5CCC3(O)C1 (stereo unspecified) ? 0.202

Likewise for CCCCCCCCC(=O)NCc1ccc(O)c(OC)c1 ? 0.792

Likewise for Cc1cc2c(C(C)C)c(O)c(O)c(C=O)c2c(O)c1-c1c(C)cc2c(C(C)C)c(O)c(O)c(C=O)c2c1O ? 0.966

Likewise for COc1cc([C@@H]2c3cc4c(cc3[C@H](OC(C)=O)[C@H]3COC(=O)[C@H]23)OCO4)cc(OC)c1OC ? 0.759

Likewise for CN1CCCCC1c1ccc(-c2cccnc2)nc1 (stereo unspecified) ? 1.03

Likewise for O=C1CCC[C@@H]2[C@H]3C[C@@H](CN12)[C@@H]1CCCCN1C3.[O-][Cl+3]([O-])([O-])O ? 0.922

Likewise for COc1cc2c3cc1Oc1c(OC)c(OC)cc4c1[C@@H](Cc1cccc(c1)Oc1ccc(c(O)c1)C[C@@H]3N(C)CC2)N(C)CC4 ? 0.961

Likewise for Cc1c(O)c(O)cc2c1CC=C1[C@@]2(C)CC[C@@]2(C)[C@@H]3C[C@](C)(C(=O)O)CC[C@]3(C)CC[C@]12C ? 0.863
